measurement.description: Half life in Beagle dog at 2 mg/kg, po and 1 mg/kg, iv
Type: ADME, organism-based, Canis lupus familiaris
particulars: in vivo
Recorded half-life, one value per entry.
experimental.endpoint: half-life (h)

In [3]: df
Out[3]:
                                   compound  experimental_endpoint  quantitative_readout
0  N#Cc1cc(Cl)cc(Oc2c(Cl)ccc3c2ncn3Cc2n[nH]c3ncccc23)c1              half-life                  12.8
1  N#Cc1cc(Cl)cc(Oc2c(Cl)ccc3c2cnn3Cc2n[nH]c3ncccc23)c1 [MK-6186]              half-life                  12.8
2  N#Cc1cc(Cl)cc(Oc2c(Cl)ccc3c2nnn3Cc2n[nH]c3ncccc23)c1              half-life                  11.3

###

measurement.description: Solubility of the compound in water at pH 2
Type: physicochemical
experimental.endpoint: solubility (µg/mL)

>>> print(df.to_string())
                                smiles_data  experimental_endpoint  scale_unit  rel  quantitative_readout
0  N#Cc1cc(Cl)cc(Oc2cc(OCc3n[nH]c4ncccc34)ccc2Cl)c1             solubility       µg/mL    <                   0.1
1  N#Cc1cc(Cl)cc(Oc2c(Cl)ccc3c2ncn3Cc2n[nH]c3ncccc23)c1             solubility       µg/mL    =                    10
2  N#Cc1cc(Cl)cc(Oc2c(Cl)ccc3c2nnn3Cc2n[nH]c3ncccc23)c1             solubility       µg/mL    <                   0.1
3  N#Cc1cc(Cl)cc(Oc2c(Cl)ccc3c2cnn3Cc2n[nH]c3ncccc23)c1             solubility       µg/mL    <                   0.1
4  N#Cc1cc(Cl)cc(Oc2c(Cl)ccc3c2cnn3Cc2n[nH]c3nc(N)ccc23)c1             solubility       µg/mL    =                    40

###

measurement.description: Plasma clearance in Beagle dog at 2 mg/kg, po and 0.5 mg/kg, iv
Format: ADME, organism-based, Canis lupus familiaris
experimental.endpoint: clearance

In [3]: df
Out[3]:
                                smiles_data         result
0  N#Cc1cc(Cl)cc(Oc2c(Cl)ccc3c2cnn3Cc2n[nH]c3nc(N)ccc23)c1  7.6 mL/min/kg

###

target.or.system: Human immunodeficiency virus type 1 reverse transcriptase (Human immunodeficiency virus 1, UniProt Q72547, Y181C)
measurement.description: Inhibition of Human immunodeficiency virus reverse transcriptase Y181C mutant by SPA assay
Just a reminder that ties go to class 0: only Ki strictly below 2 nM counts as class 1.

>>> df
                                 smiles_data  category
 0  Cc1nc2c(Oc3cc(Cl)cc(C#N)c3)c(Cl)ccc2n1Cc1n[nH]c2ncccc12   class 0
 1  N#Cc1cc(Cl)cc(Oc2c(Cl)ccc3c2c(Cl)nn3Cc2n[nH]c3ncccc23)c1   class 0
 2  N#Cc1cc(Cl)cc(Oc2cc3c(cc2Cl)nnn3Cc2n[nH]c3ncccc23)c1   class 0
 3  N#Cc1cc(Cl)cc(Oc2cc(NCc3n[nH]c4ncccc34)c(N)cc2Cl)c1   class 0
 4  N#Cc1cc(Cl)cc(Oc2c(Cl)ccc3c2nnn3Cc2n[nH]c3ncccc23)c1   class 1
 5  N#Cc1cc(Cl)cc(Oc2c(Cl)ccc3c2[nH]c(=O)n3Cc2n[nH]c3ncccc23)c1   class 0
 6  N#Cc1cc(Cl)cc(Oc2cc3c(cc2Cl)ncn3Cc2n[nH]c3ncccc23)c1   class 0
 7  N#Cc1cc(Cl)cc(Oc2c(Cl)ccc3c2nnn3Cc2n[nH]c3nc(N)ccc23)c1   class 1
 8  N#Cc1cc(Cl)cc(Oc2cc(OCc3n[nH]c4ncccc34)ccc2Cl)c1   class 1
 9  N#Cc1cc(Cl)cc(Oc2c(Cl)ccc3c2ncn3Cc2n[nH]c3ncccc23)c1   class 0
10  N#Cc1cc(Cl)cc(Oc2c(Cl)ccc3c2cnn3Cc2n[nH]c3nc(N)ccc23)c1   class 1
11  N#Cc1cc(Cl)cc(Oc2c(Cl)ccc3c2cnn3Cc2n[nH]c3ncccc23)c1   class 1
